Just for reference, patent US9650390B2 is where these values come from.

Parameter Sampling time/Dissociation percent (%) 5 min: see the listing below.
experiment: In vitro dissociation in blood plasma of rat; format: in vitro ADME, SD rats; conditions: fresh SD rat plasma, 37° C., 5 min incubation
valueType: Sampling time/Dissociation percent (%) 5 min

COC1C(=O)C2(C)C(OC)CC3OCC3(OC(C)=O)C2C(OC(=O)c2ccccc2)C2(O)CC(OC(=O)C(OC(=O)C(F)CCN(C)C)C(NC(=O)OC(C)(C)C)c3ccccc3)C(C)=C1C2(C)C.Cl (stereo not drawn) ... 89.1
CC(=O)OC1C(=O)C23CC2CC2OCC2(OC(C)=O)C3C(OC(=O)c2ccccc2)C2(O)CC(OC(=O)C(OC(=O)C(F)CC(C)N(C)C)C(NC(=O)OC(C)(C)C)c3ccccc3)C(C)=C1C2(C)C.CS(=O)(=O)O (stereo not drawn) ... 92.1
CC(=O)OC12COC1CC(O)C1(C)C(=O)C(O)C3=C(C)C(OC(=O)C(OC(=O)C(F)CCN(C)C)C(NC(=O)OC(C)(C)C)c4ccccc4)CC(O)(C(OC(=O)c4ccccc4)C21)C3(C)C.Cl (stereo not drawn) ... 92.6
CC(=O)O[C@H]1C(=O)[C@]23C[C@H]2C[C@H]2OC[C@@]2(OC(C)=O)[C@H]3[C@H](OC(=O)c2ccccc2)[C@]2(O)C[C@H](OC(=O)[C@H](OC(=O)[C@H](F)CC(C)N(C)C)[C@@H](NC(=O)OC(C)(C)C)c3ccccc3)C(C)=C1C2(C)C.Cl (stereo partly drawn) ... 93.8
CC(=O)O[C@H]1C(=O)[C@@]2(C)[C@H]([C@H](OC(=O)c3ccccc3)[C@]3(O)C[C@H](OC(=O)[C@H](OC(=O)[C@@H](F)CCN(C)C)[C@@H](NC(=O)c4ccccc4)c4ccccc4)C(C)=C1C3(C)C)[C@]1(OC(C)=O)CO[C@@H]1C[C@@H]2O.CS(=O)(=O)O ... 96.5
CO[C@H]1C(=O)[C@]2(C)[C@@H](OC)C[C@H]3OC[C@@]3(OC(C)=O)[C@H]2[C@H](OC(=O)c2ccccc2)[C@]2(O)C[C@H](OC(=O)[C@H](OC(=O)[C@@H](CCN)C(F)F)[C@@H](NC(=O)OC(C)(C)C)c3ccccc3)C(C)=C1C2(C)C.O=S(=O)(O)O ... 87.1

---

Parameter Tumor inhibitory percent (%) D20: see the listing below.
system: human prostate cancer PC-3; test: Inhibitory activity of cabazitaxel derivatives on subcutaneously xenografted tumor PC-3 in nude mice; details: D20; 13 mg/kg, D0 IV; PC-3 xenograft in nude mice; P = 0.000 vs control
valueType: Tumor inhibitory percent (%) D20

CO[C@H]1C(=O)[C@]2(C)[C@@H](OC)C[C@H]3OC[C@@]3(OC(C)=O)[C@H]2[C@H](OC(=O)c2ccccc2)[C@]2(O)C[C@H](OC(=O)[C@H](OC(=O)[C@@H](CCN(C)C)C(F)(F)F)[C@@H](NC(=O)OC(C)(C)C)c3ccccc3)C(C)=C1C2(C)C.CS(=O)(=O)O ... 105
CO[C@H]1C(=O)[C@]2(C)[C@@H](OC)C[C@H]3OC[C@@]3(OC(C)=O)[C@H]2[C@H](OC(=O)c2ccccc2)[C@]2(O)C[C@H](OC(=O)[C@H](OC(=O)C(F)CCN(C)C)[C@@H](NC(=O)OC(C)(C)C)c3ccccc3)C(C)=C1C2(C)C.CS(=O)(=O)O (some centres unmarked) ... 151
CCN(CC)CC[C@@H](F)C(=O)O[C@@H](C(=O)O[C@H]1C[C@@]2(O)[C@@H](OC(=O)c3ccccc3)[C@@H]3[C@]4(OC(C)=O)CO[C@@H]4C[C@H](OC)[C@@]3(C)C(=O)[C@H](OC)C(=C1C)C2(C)C)[C@@H](NC(=O)OC(C)(C)C)c1ccccc1.CS(=O)(=O)O ... 114
CO[C@H]1C(=O)[C@]2(C)[C@@H](OC)C[C@H]3OC[C@@]3(OC(C)=O)[C@H]2[C@H](OC(=O)c2ccccc2)[C@]2(O)C[C@H](OC(=O)[C@H](OC(=O)[C@H](F)CCN(C)C(C)C)[C@@H](NC(=O)OC(C)(C)C)c3ccccc3)C(C)=C1C2(C)C.Cl ... 101
CO[C@H]1C(=O)[C@]2(C)[C@@H](OC)C[C@H]3OC[C@@]3(OC(C)=O)[C@H]2[C@H](OC(=O)c2ccccc2)[C@]2(O)C[C@H](OC(=O)[C@H](OC(=O)[C@@H](CCN(C)C)C(F)F)[C@@H](NC(=O)OC(C)(C)C)c3ccccc3)C(C)=C1C2(C)C.Cc1ccc(S(=O)(=O)O)cc1 ... 85
CO[C@H]1C(=O)[C@]2(C)[C@@H](OC)C[C@H]3OC[C@@]3(OC(C)=O)[C@H]2[C@H](OC(=O)c2ccccc2)[C@]2(O)C[C@H](OC(=O)[C@H](OC(=O)[C@@H](F)CCN(C)C)[C@@H](NC(=O)OC(C)(C)C)c3ccccc3)C(C)=C1C2(C)C.CS(=O)(=O)O ... 151
CO[C@H]1C(=O)[C@]2(C)[C@@H](OC)C[C@H]3OC[C@@]3(OC(C)=O)[C@H]2[C@H](OC(=O)c2ccccc2)[C@]2(O)C[C@H](OC(=O)[C@H](OC(=O)[C@H](F)CCN(C)C)[C@@H](NC(=O)OC(C)(C)C)c3ccccc3)C(C)=C1C2(C)C.CS(=O)(=O)O ... 154
CCN(C)CC[C@@H](F)C(=O)O[C@@H](C(=O)O[C@H]1C[C@@]2(O)[C@@H](OC(=O)c3ccccc3)[C@@H]3[C@]4(OC(C)=O)CO[C@@H]4C[C@H](OC)[C@@]3(C)C(=O)[C@H](OC)C(=C1C)C2(C)C)[C@@H](NC(=O)OC(C)(C)C)c1ccccc1.O=C(O)/C=C\C(=O)O ... 128
